Read-out: Nuclear factor erythroid 2-related factor 2 (Homo sapiens) (UniProt Q16236)
Sequence (Q16236 whole entry, looked up): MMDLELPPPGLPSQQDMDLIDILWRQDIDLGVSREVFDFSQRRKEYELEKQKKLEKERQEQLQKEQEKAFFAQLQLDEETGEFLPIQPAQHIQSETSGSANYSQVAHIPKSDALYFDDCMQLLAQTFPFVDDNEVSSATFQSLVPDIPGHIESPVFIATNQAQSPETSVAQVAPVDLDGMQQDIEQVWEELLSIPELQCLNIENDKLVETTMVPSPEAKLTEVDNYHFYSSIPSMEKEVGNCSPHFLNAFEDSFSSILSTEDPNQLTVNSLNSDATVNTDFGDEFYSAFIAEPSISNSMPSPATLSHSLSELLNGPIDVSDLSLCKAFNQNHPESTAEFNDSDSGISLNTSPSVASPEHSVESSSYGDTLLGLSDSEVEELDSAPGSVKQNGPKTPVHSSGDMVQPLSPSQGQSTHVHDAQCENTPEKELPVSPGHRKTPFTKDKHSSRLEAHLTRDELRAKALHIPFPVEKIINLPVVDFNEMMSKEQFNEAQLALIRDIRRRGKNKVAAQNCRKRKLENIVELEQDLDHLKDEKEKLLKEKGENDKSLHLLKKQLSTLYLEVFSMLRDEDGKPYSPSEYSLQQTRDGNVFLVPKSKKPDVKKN
measurement.notes: LTEA_HepaRG_NFE2L2: Life Technologies and Expression Analysis (LTEA) Assay for Nuclear factor erythroid 2-related factor 2 (NFE2L2) Transcription Factor using HepaRG (AID 2283527);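 for outcome: TaqMan qRT-PCR transcript level normalised to ACTB GAPDH and POLR2A housekeeping genes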
test.context: mRNA level, 48 h; actives raise or lower the signal
Active and inactive are the calls of the source. Rule for the calls: active = hit-call score of the fitted dose curve at least 0.9, where 1 is the maximum; inactive = score below 0.9.
The reply should name one outcome from True for active, False for inactive

## Input Please indicate how the test categorized CC(=NC#N)N(C)Cc1ccc(Cl)nc1 .
## Output False

## Input I would be grateful if you could indicate the recorded call for CCC(=NOC/C=C/Cl)C1=C(O)CC(C2CCOCC2)CC1=O (stereo unspecified) .
## Output False

## Input Any idea what this test logged for CCCCOC(=O)c1ccccc1C(=O)O ?
## Output False

## Input So what was the verdict on CCOP(=S)(Oc1cnc(C(C)(C)C)nc1)OC(C)C (stereo unspecified) in this test?
## Output False

## Input Field: outcome | Entry: CCOP(=S)(OCC)Oc1ccc([N+](=O)[O-])cc1
## Output False

## Input Hi team, can someone confirm the assay call for CCc1cccc(CC)c1N(COC)C(=O)CCl ?
## Output False

## Input Hi, sorry to bother you, what did the test record for CC(C)[C@H](C(=O)O[C@H](C#N)c1cccc(Oc2ccccc2)c1)c1ccc(Cl)cc1 ?
## Output False

## Input What call does the record list for CCC(=O)Nc1ccc(Cl)c(Cl)c1 ?
## Output True

## Input Please share the test call associated with CCCOc1nn(C(=O)NS(=O)(=O)c2ccccc2C(=O)OC)c(=O)n1C .
## Output False

## Input Please let me know the test result on file for COP(=O)(OC)OC(Br)C(Cl)(Cl)Br (stereo unspecified) .
## Output False

## Input What did the test return for CCCSP(=O)(OCC)SCCC ?
## Output False

## Input # lookup: test call for CN1COCN(Cc2cnc(Cl)s2)C1=N[N+](=O)[O-]
## Output False

## Input What is the recorded call for this compound in the test? CN(C)C(=O)Nc1cccc(C(F)(F)F)c1
## Output True

## Input Lab log entry: COP(=O)(NC(C)=O)SC (stereo unspecified) — outcome as called in the assay?
## Output False

## Input GET /call?item= O=c1ccc(=O)[nH][nH]1 returns the recorded outcome of this test.
## Output False

## Input Hi team, can someone confirm the assay call for CCOP(=O)(NC(C)C)Oc1ccc(SC)c(C)c1 (stereo unspecified) ?
## Output False

## Input Test call, this compound: CSc1nnc(C(C)(C)C)c(=O)n1N
## Output False

## Input What did this assay record as the result for CNc1cnn(-c2cccc(C(F)(F)F)c2)c(=O)c1Cl ?
## Output True

## Input Hi, sorry to bother you, what did the test record for CC1=NNC(=O)N(/N=C/c2cccnc2)C1 ?
## Output False

## Input Lab log entry: C#CC(C)(C)NC(=O)c1cc(Cl)cc(Cl)c1 — outcome as called in the assay?
## Output False

## Input So what was the verdict on S=C1NCCN1 in this test?
## Output False

====

experimental.system: Aryl hydrocarbon receptor (Homo sapiens)
measurement.notes: ATG_Ahr_CIS: Attagene CIS-FACTORIAL HepG2 Assay for human Aryl Hydrocarbon Receptor (Ahr) (AID 2282930)
test.context: HepG2 AhR cis-factorial reporter transcription; actives raise or lower the signal
Activity calls are given as the source filed them. Rule for the calls: active = hit-call score of the fitted dose curve at least 0.9, where 1 is the maximum; inactive = score below 0.9.
Can you answer with just one of these options? yes (active), no (inactive)

## Input What classification did CSc1nc(NC(C)C)nc(NC(C)C)n1 end up with in this test?
## Output no

## Input Could you please tell me the result logged for CCOP(=S)(OCC)SCCSCC in this assay?
## Output no

## Input // outcome(item) with item = CC(C1CC1)C(O)(Cn1cncn1)c1ccc(Cl)cc1 (stereo not given)
## Output no

## Input Recorded test outcome, item COP(=O)(NC(C)=O)SC (stereo not given)
## Output no

## Input What did this assay record as the result for CCc1cnc(C2=NC(C)(C(C)C)C(=O)N2)c(C(=O)O)c1 (stereo not given) ?
## Output no

## Input Per the records of this test, what outcome belongs to CC[C@H](C)[C@H]1O[C@]2(C=C[C@@H]1C)C[C@@H]1C[C@@H](C/C=C(\C)[C@@H](O[C@H]3C[C@H](OC)[C@@H](O[C@H]4C[C@H](OC)[C@@H](NC)[C@H](C)O4)[C@H](C)O3)[C@@H](C)/C=C/C=C3\CO[C@@H]4[C@H](O)C(C)=C[C@@H](C(=O)O1)[C@]34O)O2 ?
## Output no

## Input Hey, what did the test say about CCOP(=O)(NC(C)C)Oc1ccc(SC)c(C)c1 (stereo not given) ?
## Output no

## Input For this compound, state the assay outcome: CCOC(=O)COc1cc(-c2nn(C)c(OC(F)F)c2Cl)c(F)cc1Cl
## Output no

## Input Which outcome did this test record for the compound CON=C(C(=O)OC)c1ccccc1CON=C(C)c1cccc(C(F)(F)F)c1 ?
## Output no

## Input So what was the verdict on CCOP(=S)(OCC)Oc1ccc2c(C)c(Cl)c(=O)oc2c1 in this test?
## Output no

## Input What outcome does the record of this test show for CCCCOC(=O)[C@@H](C)Oc1ccc(Oc2ccc(C#N)cc2F)cc1 ?
## Output no

## Input Fill in: this test's call for CNC(=O)Oc1cccc2c1OC(C)(C)O2 is ___
## Output no

## Input Hey, what did the test say about CCCCOC(=O)c1ccccc1C(=O)O ?
## Output no

## Input Short answer needed: outcome of this test for FC(F)C(F)(F)OCC(Cn1cncn1)c1ccc(Cl)cc1Cl (stereo not given) ?
## Output yes

## Input So what was the verdict on CCc1cccc(CC)c1N(COC)C(=O)CCl in this test?
## Output no

## Input What did the test return for CCOP(=S)(OCC)Oc1ccc([N+](=O)[O-])cc1 ?
## Output yes

## Input Any idea what this test logged for CCOP(=O)(SC(C)CC)N1CCSC1=O (stereo not given) ?
## Output no

## Input How was CNC(=O)ON=C(C)SC classified in this test?
## Output no

## Input // outcome(item) with item = CC(=NC#N)N(C)Cc1ccc(Cl)nc1
## Output no

## Input What is the recorded call for this compound in the test? COc1ccc(C(=CC(=O)N2CCOCC2)c2ccc(Cl)cc2)cc1OC
## Output no

## Input // outcome(item) with item = CC(C)=CC1C(C(=O)OCN2C(=O)C3=C(CCCC3)C2=O)C1(C)C (stereo not given)
## Output no

## Input How did this test come out for CNc1cnn(-c2cccc(C(F)(F)F)c2)c(=O)c1Cl ?
## Output no

## Input What was the test verdict on CCOP(=O)(OCC)Oc1cc(C)nc(C(C)C)n1 ?
## Output no

## Input Give the logged outcome of this assay for the following compound: COP(=O)(OC)C(O)C(Cl)(Cl)Cl (stereo not given)
## Output no

## Input Lab log entry: O=C(O)c1cc(Oc2ccc(C(F)(F)F)cc2Cl)ccc1[N+](=O)[O-] — outcome as called in the assay?
## Output no

## Input Record request — test call for Nc1c(Cl)cc([N+](=O)[O-])cc1Cl
## Output no

## Input # fetch the recorded call for CCc1cccc(C)c1N(C(=O)CCl)C(C)COC (stereo not given) here
## Output no

## Input How did this test come out for S=C1NCCN1 ?
## Output no

## Input # lookup: test call for CCCOc1nn(C(=O)NS(=O)(=O)c2ccccc2C(=O)OC)c(=O)n1C
## Output no

## Input Would you mind telling me which call this test gave CCC(CC)Nc1c([N+](=O)[O-])cc(C)c(C)c1[N+](=O)[O-] ?
## Output no
